Tested on: MALME-3M melanoma
Test: NCI tumour cell line growth inhibition, 48 h
Reported TGI values for a set of compounds

compound	measuredEndpoint	value
N#Cc1c(N2CCN(c3ccc([N+](=O)[O-])cc3)CC2)[n+](=O)c2ccccc2n1[O-]	TGI	> 100 µM
Cn1c(=O)c(Cl)c(N=[N+]=[N-])c2ccccc21	TGI	> 100 µM

Please look at the following compound next.
Kindly note the recorded TGI for COC(=O)C1C=CCON2CCc3c(n(S(=O)(=O)c4ccccc4)c4ccccc34)C12 (stereo not drawn) , which is > 100 µM

---

Test system: SK-MEL-28 melanoma
Assay: NCI tumour cell line growth inhibition, 48 h
Reported TGI values for a set of compounds

Clc1c2ccccc2nc2c1[nH]c1ccccc12 > 100 µM

Kindly note the recorded TGI for O=[N+]([O-])c1cccc(N=Nc2c(O)ccc3ccccc23)c1 , which is > 100 µM

Kindly note the recorded TGI for COc1cccc(/C=C\c2ccc(O)cc2)c1 , which is > 100 µM

Kindly note the recorded TGI for CC(=O)/C(C=Nc1c(C)n(C)n(C)c1=O)=C(/O)c1ccccc1 , which is > 50 µM

---

Reported TGI values for a set of compounds
Tested on: HCT-15 colon
Assay: NCI tumour cell line growth inhibition, 48 h

Worked cases, TGI given:
CC1CC[P+](c2ccccc2)(c2ccccc2)CC1 > 100 µM
CCc1cccc(C)c1NC(=S)NC(=O)c1ccccc1C(=O)NC(=S)Nc1c(C)cccc1CC > 100 µM

Please look at the following compound next.
Kindly note the recorded TGI for O=c1c2ccccc2[nH]c2c(Cl)cc(Cl)c(N3CCCCC3)c12 , which is > 100 µM

---

Tested on: KM20L2 colon
Test: NCI tumour cell line growth inhibition, 48 h
measuredEndpoint: TGI

Worked cases, TGI given:
CCOC(=O)C(=O)Nc1ccccc1C(C)C > 100 µM
c1ccc(N/N=C2\NN=C(c3ccccc3)CS2)cc1 22.8 µM
CCOC(=O)c1cccnc1C(OC(C)=O)OC(C)=O > 100 µM

Please look at the following compound next.
Kindly note the recorded TGI for CN(C(=O)c1ccc(OCCCC(=O)O)c(Cl)c1Cl)C1CCCC1 , which is > 100 µM

---

Test system: SK-OV-3 ovarian
Assay: NCI tumour cell line growth inhibition, 48 h
measuredEndpoint: GI50

Worked cases, GI50 given:
compound	GI50
Cc1ccc(OCC2OC(n3cnc4c(Br)nc(Br)nc43)CC2Oc2ccc(C)cc2)cc1 (centres undefined)	11.2 µM
CCC[CH2][Pb]([Cl])([CH2]CCC)[CH2]CCC	0.12 µM
CN(C)c1ccc(N=C2C=CC(=O)c3ccccc32)cc1	17 µM
COc1ccc(/C=C2\c3cc(OC)c(OC)c(OC)c3CC[C@@H]2O)cc1F	0.306 µM

Please look at the following compound next.
Kindly note the recorded GI50 for C1C[OH+]CC[OH+]CCNCC[OH+]CC[OH+]CCN1.Cl.[Cl-].[Pt+4] , which is > 100 µM

---

Test system: SK-MEL-5 melanoma
Assay: NCI tumour cell line growth inhibition, 48 h; in the data active means GI50 below about 0.43 µM; inactive means the rest
Can you answer with just one of these options? active, inactive

molecule	measurementTarget	class
CN(C)CCNC(=O)NC[C@H]1CC[C@@H]2[C@H](O1)c1cc(C(F)(F)F)ccc1N[C@H]2c1ccccc1	SK-MEL-5 melanoma	active
Cc1cc(=O)oc2cc(OC/C=C3\CCC(=O)O3)ccc12	SK-MEL-5 melanoma	inactive
FC(F)(F)c1cc(Nc2ccc3cc(OCCCN4CCOCC4)ccc3n2)ccc1Cl	SK-MEL-5 melanoma	inactive
COc1ccc2c(c1)C(=O)c1c-2c(Nc2cccc(C(C)=O)c2)nc2ccccc12	SK-MEL-5 melanoma	inactive

For Cc1ccc(S(=O)(=O)N2CCc3ccc(O)c4c3C2Cc2ccc3c(c2-4)OCO3)cc1 (centres undefined) , which call appears in the assay record? inactive

For Cc1ccc(OCC2OC(n3cnc4c(Br)nc(Br)nc43)CC2Oc2ccc(C)cc2)cc1 (centres undefined) , which call appears in the assay record? inactive

For COc1ccc(OC)c(/C=C/c2nc(SCc3ccccc3)n(-c3ccc(Cl)cc3)n2)c1 , which call appears in the assay record? inactive

For C1C[OH+]CC[OH+]CCNCC[OH+]CC[OH+]CCN1.Cl.[Cl-].[Pt+4] , which call appears in the assay record? inactive

For COc1ccc(/C=C2\c3cc(OC)c(OC)c(OC)c3CC[C@@H]2O)cc1F , which call appears in the assay record? active
